Form field: IC50 (one value per entry).
Biological target: HLA-DR DRB1*0701 (human)
Assay: competition with 125I-labelled peptide, purified HLA

Binder	Unit Abbreviation	IC50
TKKMVTQRTIGKKKQ (modifications not checked) [Flu.PB1.199]	µM	14.1
YIQMCTELKLSDYEG (modifications not checked) [Flu.NP.43]	µM	5.37
SLMLQIGNMISIWVSHS (modifications not checked) [Flu.NA.21]	µM	0.013
